Target: Diaphorase
Experiment: peptide array, 10 uM labeled diaphorase, no FAD
// reported fluorescence per item

[[record]]
binder = "RQYQKHSYAKFSGSG"
val = 57200

[[record]]
binder = "KEAPGPRFGGSG"
val = 5610

[[record]]
binder = "RFKYPLDGGSG"
val = 55900

[[record]]
binder = "VFGVLSQVARDGSG"
val = 26200

[[record]]
binder = "LKQLFLEGGSG"
val = 8700


Note to self: fluorescence recorded for YNRNAKSSGGSG was 41300

Note to self: fluorescence recorded for AFYGLELGGSG was 16500

Note to self: fluorescence recorded for NVSDLSQFYLSGSG was 6740

Note to self: fluorescence recorded for KHSFQKELGGSG was 2390

Note to self: fluorescence recorded for WRGFKFADGGSG was 58900

Note to self: fluorescence recorded for KNRPYNKDLEDGSG was 2520

Note to self: fluorescence recorded for SVLEGYQAVFGGSG was 6070

Note to self: fluorescence recorded for DLFQLVFSGSG was 32700

Note to self: fluorescence recorded for EAVQKLLFSGSG was 5390
